These data points were gathered from PubChem BioAssay.

assay: probe aXIP binding to arrayed compounds – biochemical, NeuroSMM set, 635/667 nm fluorescence, primary screen (AID 1119); settings: small-molecule microarray, higher = more signal, called active from +8 up or from −8 down;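 note: probe is the protein aXip251-270 applied at 1 µg/mL to compound-printed slides; binding of probe to printed compounds measured as 667 nm fluorescence plus signal to noise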
Assign composite Z-score to each entry below.
Kindly provide the number alone.

Query :: Return reported composite Z-score; argument: COC(=O)[C@@]1(Cc2ccccc2)[C@H]2c3cc(C(=O)N4CCCC4)n(CCO)c3C[C@H]2CN1C(=O)c1ccccc1
Result :: 1.61

Query :: What composite Z-score value was documented for this molecule, CN(C)CCCCNC(=O)[C@H]1C[C@H]2C(=O)N[C@@H](CCCC[N+](C)(C)C)C(=O)N2[C@H]1c1cccc(OCCO)c1 ?
Result :: 2.15

Query :: Please report the recorded composite Z-score for NC(=O)NCC#Cc1ccc2c(c1)[C@]1(C(=O)N2)[C@H](c2ccc(OCCO)cc2)N2[C@H](c3ccccc3)[C@H](c3ccccc3)OC(=O)[C@H]2[C@@H]1C(=O)N1CCCCCCC1 .
Result :: 5.46

Query :: So what's the measured composite Z-score for this one? C=C(COC)/C(=C/C[C@@H](OC(=O)c1ccncc1)c1cccc(OCCO)c1)c1cc(C(=O)OC)ccc1OC
Result :: 0.135

Query :: What value of measured composite Z-score is listed for O=C1NC(=O)C2C1C=CC(C(O)CCc1ccccc1)N2Nc1ccccn1 (stereo not given) ?
Result :: 1.62

Query :: Returns the measured composite Z-score for the input molecule. Input: CCN(CC)c1ccc(N2CC=CC34O[C@@H]5/C=C\CCCOC(=O)C5[C@H]3C(=O)N(CCCCCCO)[C@@H]4C2=O)cc1 (stereo not given in full)
Result :: 0.703

Query :: Sample COC(=O)c1ccc(OC)c(/C=C\CC(CCc2ccccc2)OC(=O)c2ccncc2)c1 (stereo not given) — what was its composite Z-score?
Result :: 0.302

Query :: Could you tell me which composite Z-score is on file for COCCOC(=O)N1C(=O)[C@@]2(c3ccccc31)[C@H](c1ccc(OCCO)cc1)N1[C@H](c3ccccc3)[C@H](c3ccccc3)OC(=O)[C@H]1[C@@H]2C(=O)NC[C@H](O)c1ccccc1 ?
Result :: 0.774

Query :: Need composite Z-score, item COC(=O)[C@@]1(Cc2ccc(OC)cc2)[C@H]2c3cc(C(=O)N4CCCC4)n(CCc4ccc(O)c(OC)c4)c3C[C@H]2CN1C(=O)c1ccccc1
Result :: 0.683

Query :: // returns reported composite Z-score for input C=C(C(=O)CC[C@H](OC(=O)c1cccnc1)c1ccc(OCCO)cc1)C(C)C
Result :: -0.496

Query :: What value of measured composite Z-score is listed for O=C1C2C=CC(C(O)c3ccccn3)N(Nc3ccccc3)C2C(=O)N1c1ccccc1 (stereo not given) ?
Result :: 0.959

Query :: Please look up its composite Z-score: COc1ccc([Si](C)(C)[C@H]2[C@H](CC(=O)N3CCC[C@H]3CO)O[C@@]3(C(=O)N(Cc4ccc(N5C(=O)c6cccc7cccc5c67)cc4)c4ccccc43)[C@@H]2C)cc1
Result :: 0.829

Query :: Requested field: composite Z-score. Item: COC(=O)C(CC#Cc1ccc2c(c1)[C@]1(C(=O)N2)[C@H](c2ccc(OCCO)cc2)N2[C@H](c3ccccc3)[C@H](c3ccccc3)OC(=O)[C@H]2[C@@H]1C(=O)O)C(=O)OC
Result :: 0.419

Query :: Fill in the blank: the reported composite Z-score of C=CCC(OC(C)=O)[C@@H]1[C@@H](N(Cc2cc3ccccc3o2)C(=O)Cc2ccc(OC)cc2)c2cc(OCCCO)ccc2N1C(=O)c1ccc(-c2ccccc2)cc1 (stereo not given in full) is ____.
Result :: -0.287

Query :: Value lookup for composite Z-score; key = Cc1ccc(-c2cccc(=O)o2)cc1
Result :: -1.14
